Tested on: Pseudomonas aeruginosa
assay.remarks: Antibacterial activity against Pseudomonas aeruginosa FE53G with inactivated mexZ and nuoG genes by microdilution method
Assay type: functional
MIC: recorded values
measure: MIC (µg/mL)

- compound: "CO/N=C(\\C(=O)N[C@@H]1C(=O)N2C(C(=O)[O-])=C(C[N+]3(C)CCCC3)CS[C@H]12)c1csc(N)n1 [CEFEPIME]"
  experimental.target: "Pseudomonas aeruginosa"
  measure: "MIC"
  readout.number: 16
- compound: "NC[C@H]1O[C@H](O[C@H]2[C@H](O)[C@@H](O[C@H]3O[C@H](CO)[C@@H](O)[C@H](N)[C@H]3O)[C@H](N)C[C@@H]2N)[C@H](O)[C@@H](O)[C@@H]1O [KANAMYCIN]"
  experimental.target: "Pseudomonas aeruginosa"
  measure: "MIC"
  readout.number: 256
- compound: "NCC[C@H](O)C(=O)N[C@@H]1C[C@H](N)[C@@H](O[C@H]2O[C@H](CN)[C@@H](O)[C@H](O)[C@H]2O)[C@H](O)[C@H]1O[C@H]1O[C@H](CO)[C@@H](O)[C@H](N)[C@H]1O [AMIKACIN]"
  experimental.target: "Pseudomonas aeruginosa"
  measure: "MIC"
  readout.number: 16
- compound: "NC[C@H]1O[C@H](O[C@H]2[C@H](O)[C@@H](O[C@H]3O[C@H](CO)[C@@H](O)[C@H](N)[C@H]3O)[C@H](N)C[C@@H]2N)[C@H](N)C[C@@H]1O [TOBRAMYCIN]"
  experimental.target: "Pseudomonas aeruginosa"
  measure: "MIC"
  readout.number: 2
- compound: "O=C(O)c1cn(C2CC2)c2cc(N3CCNCC3)c(F)cc2c1=O [CIPROFLOXACIN]"
  experimental.target: "Pseudomonas aeruginosa"
  measure: "MIC"
  readout.number: 1
- compound: "CCN[C@@H]1C[C@H](N)[C@@H](O[C@H]2OC(CN)=CC[C@H]2N)[C@H](O)[C@H]1O[C@H]1OC[C@](C)(O)[C@H](NC)[C@H]1O [NETILMICIN]"
  experimental.target: "Pseudomonas aeruginosa"
  measure: "MIC"
  readout.number: 16
